Cited source: patent US20190315823A1

# System: methicillin resistant Staphylococcus aureus (MRSA) biofilm
# condition_set: approximate peptide concentration […] (around 3 μg/ml); compared to untreated samples
Ends that are not written are not given here.
Reported values of % Biofilm inhibition for individual entries
measure_name: % Biofilm inhibition (%)

substance | reported
1002-A8: single substituted 1002 peptide (VQRWLIVARIRK-NH2) [Peptide 1002-A8] | 52
1018-W3: single substituted 1018 peptide (VRWIVAVRIWRR-NH2) [Peptide 1018-W3] | 66
1018-G4: single substituted 1018 peptide (VRLGVAVRIWRR-NH2) [Peptide 1018-G4] | 63
HH2-K7: single substituted HH2 peptide (VQLRIRKAVIRA-NH2) | 7
1002-R12: single substituted 1002 peptide (VQRWLIVWRIRR-NH2) [Peptide 1002-R12] | 62
1018-L6: single substituted 1018 peptide (VRLIVLVRIWRR-NH2) [Peptide 1018-L6] | 69
HH2-A6: single substituted HH2 peptide (VQLRIAVAVIRA-NH2) | 41
1002-K2: single substituted 1002 peptide (VKRWLIVWRIRK-NH2) [Peptide 1002-K2] | 69

---

# Test system: LPS-stimulated human peripheral blood mononuclear cells (IL1-β)
# Type: cell-based
# condition_set: Table 12; cells stimulated with 10 ng/ml LPS; LPS alone 1313 (HH2 derivatives), 1927 (1018 derivatives), 2455 (1002 and hybrid peptides) pg/ml
Ends that are not written are not given here.
Reported values of IL1β Production for individual entries

substance | output_unit | IL1β Production
1002-Q3: single substituted 1002 peptide (VQQWLIVWRIRK-NH2) [Peptide 1002-Q3] | pg/mL | 127
1018-K2: single substituted 1018 peptide (VKLIVAVRIWRR-NH2) [Peptide 1018-K2] | pg/mL | 127
1018-V8: single substituted 1018 peptide (VRLIVAVVIWRR-NH2) [Peptide 1018-V8] | pg/mL | 463
HH2-G5: single substituted HH2 peptide (VQLRGRVAVIRA-NH2) | pg/mL | 1672

---

Reported values of % Biofilm inhibition for individual entries
# Tested on: methicillin resistant Staphylococcus aureus (MRSA) biofilm
# condition_set: approximate peptide concentration […] (around 3 μg/ml); compared to untreated samples
Ends that are not written are not given here.
measure_name: % Biofilm inhibition (%)

substance | measure_name | reported
1018-A7: single substituted 1018 peptide (VRLIVAARIWRR-NH2) [Peptide 1018-A7] | % Biofilm inhibition | 52
HH2-L11: single substituted HH2 peptide (VQLRIRVAVILA-NH2) | % Biofilm inhibition | 47
1018-I12: single substituted 1018 peptide (VRLIVAVRIWRI-NH2) [Peptide 1018-I12] | % Biofilm inhibition | 57
HH2-L8: single substituted HH2 peptide (VQLRIRVLVIRA-NH2) | % Biofilm inhibition | 50
HH2-A9: single substituted HH2 peptide (VQLRIRVAAIRA-NH2) | % Biofilm inhibition | 51
1002-I12: single substituted 1002 peptide (VQRWLIVWRIRI-NH2) [Peptide 1002-I12] | % Biofilm inhibition | 66
1002-V2: single substituted 1002 peptide (VVRWLIVWRIRK-NH2) [Peptide 1002-V2] | % Biofilm inhibition | 72
HH2-V12: single substituted HH2 peptide (VQLRIRVAVIRV-NH2) | % Biofilm inhibition | 65
1018-Q1: single substituted 1018 peptide (QRLIVAVRIWRR-NH2) [Peptide 1018-Q1] | % Biofilm inhibition | 46
1002-A11: single substituted 1002 peptide (VQRWLIVWRIAK-NH2) [Peptide 1002-A11] | % Biofilm inhibition | 52
1002-A10: single substituted 1002 peptide (VQRWLIVWRARK-NH2) [Peptide 1002-A10] | % Biofilm inhibition | 45
1018-L11: single substituted 1018 peptide (VRLIVAVRIWLR-NH2) [Peptide 1018-L11] | % Biofilm inhibition | 4
1002-W11: single substituted 1002 peptide (VQRWLIVWRIWK-NH2) [Peptide 1002-W11] | % Biofilm inhibition | 37
1018-K2: single substituted 1018 peptide (VKLIVAVRIWRR-NH2) [Peptide 1018-K2] | % Biofilm inhibition | 68
1002-L6: single substituted 1002 peptide (VQRWLLVWRIRK-NH2) [Peptide 1002-L6] | % Biofilm inhibition | 52
1018-R9: single substituted 1018 peptide (VRLIVAVRRWRR-NH2) [Peptide 1018-R9] | % Biofilm inhibition | 59

---

# System: LPS-stimulated human peripheral blood mononuclear cells (IL1-β)
# Assay type: cell-based
# condition_set: Table 12; cells stimulated with 10 ng/ml LPS; LPS alone 1313 (HH2 derivatives), 1927 (1018 derivatives), 2455 (1002 and hybrid peptides) pg/ml
Ends that are not written are not given here.
Param threshold (1000 pg/mL) applies to IL1β Production; output true when value >= threshold, false when value < threshold.

substance | assigned_class
1002-I4: single substituted 1002 peptide (VQRILIVWRIRK-NH2) [Peptide 1002-I4] | false
1018-K3: single substituted 1018 peptide (VRKIVAVRIWRR-NH2) [Peptide 1018-K3] | true
HH2-L6: single substituted HH2 peptide (VQLRILVAVIRA-NH2) | false
1018-I5: single substituted 1018 peptide (VRLIIAVRIWRR-NH2) [Peptide 1018-I5] | false
1018-I8: single substituted 1018 peptide (VRLIVAVIIWRR-NH2) [Peptide 1018-I8] | true
HH2-A11: single substituted HH2 peptide (VQLRIRVAVIAA-NH2) | true
HH2-Q3: single substituted HH2 peptide (VQQRIRVAVIRA-NH2) | true
1018-A7: single substituted 1018 peptide (VRLIVAARIWRR-NH2) [Peptide 1018-A7] | false
1002-K5: single substituted 1002 peptide (VQRWKIVWRIRK-NH2) [Peptide 1002-K5] | false
1002-R4: single substituted 1002 peptide (VQRRLIVWRIRK-NH2) [Peptide 1002-R4] | false
HH2-R8: single substituted HH2 peptide (VQLRIRVRVIRA-NH2) | true
HH2-L11: single substituted HH2 peptide (VQLRIRVAVILA-NH2) | true
HH2-W6: single substituted HH2 peptide (VQLRIWVAVIRA-NH2) | false
1002-G10: single substituted 1002 peptide (VQRWLIVWRGRK-NH2) [Peptide 1002-G10] | false
HH2-V3: single substituted HH2 peptide (VQVRIRVAVIRA-NH2) | true
1018-R7: single substituted 1018 peptide (VRLIVARRIWRR-NH2) [Peptide 1018-R7] | true
1018-L5: single substituted 1018 peptide (VRLILAVRIWRR-NH2) [Peptide 1018-L5] | false

---

# System: human peripheral blood mononuclear cells (MCP-1)
# experiment: SPOT-synthesized derivative screen: production of chemokine MCP-1
# Assay type: cell-based
# condition_set: Table 12A; No LPS
Peptide text beside a SMILES is read from it.
Reported values of Fold increase in MCP1 cf. untreated cells for individual entries
measure_name: Fold increase in MCP1 cf. untreated cells

molecule | reported
CC[C@H](C)[C@H](NC(=O)[C@@H](NC(=O)[C@H](CCCCN)NC(=O)[C@@H](NC(=O)[C@H](CCCNC(=N)N)NC(=O)[C@H](CCCNC(=N)N)NC(=O)[C@@H](NC(=O)[C@H](CCCNC(=N)N)NC(=O)[C@H](CCC(N)=O)NC(=O)[C@@H](N)Cc1c[nH]c2ccccc12)C(C)C)C(C)C)C(C)C)C(=O)N[C@@H](CCCNC(=N)N)C(=O)N[C@@H](CCCCN)C(N)=O [Peptide 2013] (H-WQRVRRVKVIRK-NH2; N-terminus assumed) | 31
CC[C@H](C)[C@H](NC(=O)[C@H](CCCNC(=N)N)NC(=O)[C@@H](NC(=O)[C@H](CCCCN)NC(=O)[C@@H](NC(=O)[C@@H](NC(=O)[C@H](Cc1c[nH]c2ccccc12)NC(=O)[C@H](CCCNC(=N)N)NC(=O)[C@@H](N)CCCNC(=N)N)[C@@H](C)CC)C(C)C)C(C)C)C(=O)N[C@@H](CCCNC(=N)N)C(=O)N[C@@H](CCCNC(=N)N)C(=O)N[C@@H](CCCNC(=N)N)C(N)=O [Peptide 2008] (H-RRWIVKVRIRRR-NH2; N-terminus assumed) | 2146
CC[C@H](C)[C@H](NC(=O)[C@H](CCCNC(=N)N)NC(=O)[C@@H](NC(=O)[C@H](CCCNC(=N)N)NC(=O)[C@@H](NC(=O)[C@@H](NC(=O)[C@H](CC(C)C)NC(=O)[C@H](CCCNC(=N)N)NC(=O)[C@@H](N)C(C)C)[C@@H](C)CC)C(C)C)C(C)C)C(=O)N[C@@H](Cc1c[nH]c2ccccc12)C(=O)N[C@@H](CCCNC(=N)N)C(=O)N[C@@H](CCCNC(=N)N)C(N)=O [Peptide 2005] (H-VRLIVRVRIWRR-NH2; N-terminus assumed) | 837
CC[C@H](C)[C@H](NC(=O)[C@H](CCCNC(=N)N)NC(=O)[C@@H](NC(=O)[C@H](C)NC(=O)[C@@H](NC(=O)[C@@H](NC(=O)[C@H](CC(C)C)NC(=O)[C@H](CCCNC(=N)N)NC(=O)[C@@H](N)C(C)C)[C@@H](C)CC)C(C)C)C(C)C)C(=O)N[C@@H](CCCNC(=N)N)C(=O)N[C@@H](CCCNC(=N)N)C(=O)N[C@@H](CCCNC(=N)N)C(N)=O [Peptide 2002] (H-VRLIVAVRIRRR-NH2; N-terminus assumed) | 152
